Recorded values, source ChEMBL document CHEMBL5442219.

biological target: D(2) dopamine receptor (Homo sapiens); details: Compound concentration 10 µM; call rule not given here
Respond only with the outcome that fits, drawn from yes (1) (active), no (0) (inactive)

Please review the following examples before continuing.
compound: CCc1cc2c(cc1CC)CC(NC[C@H](O)c1ccc(O)c3[nH]c(=O)ccc13)C2
tested_target: D(2) dopamine receptor (Homo sapiens)
qualitative_label: no (0)
--
compound: OC1(c2ccc(Cl)cc2)CCN(Cc2c[nH]c3ccccc23)CC1
tested_target: D(2) dopamine receptor (Homo sapiens)
qualitative_label: yes (1)
--
compound: C[N+]1(C)[C@@H]2C[C@@H](OC(=O)C(O)(c3cccs3)c3cccs3)C[C@H]1[C@@H]1O[C@@H]12
tested_target: D(2) dopamine receptor (Homo sapiens)
qualitative_label: no (0)
--
compound: COc1ccc2cc(S(=O)(=O)N[C@H](CC(=O)N[C@H](Cc3ccc(CN4[C@H](C)CCC[C@@H]4C)cc3)C(=O)N(C)C(C)C)c3ccc4c(c3)OCO4)ccc2c1
tested_target: D(2) dopamine receptor (Homo sapiens)
qualitative_label: no (0)
--
compound: COc1ccc(S(=O)(=O)c2cc(OC)ccc2S(=O)(=O)c2ccc([C@H](C)NS(C)(=O)=O)cc2)cc1
tested_target: D(2) dopamine receptor (Homo sapiens)
qualitative_label: no (0)
--
compound: C[C@@H](NCCc1ccc(O)cc1)[C@@H](O)c1ccc(O)cc1 (relative stereo)
tested_target: D(2) dopamine receptor (Homo sapiens)
qualitative_label: no (0)
--
compound: NC[C@H](O)c1ccc(O)c(O)c1
tested_target: D(2) dopamine receptor (Homo sapiens)
qualitative_label: no (0)
--
compound: CCC[C@H](Oc1cc(C)c(-n2cc(C(F)(F)F)cn2)c(C)c1)c1ccc(C(=O)NCCC(=O)O)cc1
tested_target: D(2) dopamine receptor (Homo sapiens)
qualitative_label: no (0)

Q: GET /call?item= FC(F)(F)c1cccc(-c2noc(-c3cc(-c4ccccc4)c(C(F)(F)F)s3)n2)c1 returns the recorded outcome of this test.
Result: no (0)

Q: For this compound, state the assay outcome: Cc1ccccc1C(=O)Nc1ccc(C(=O)N2CCCC(O)c3cc(Cl)ccc32)c(C)c1 (stereo not drawn)
Result: no (0)

Q: For COc1ccc(S(=O)(=O)N2c3ccc(Cl)cc3[C@](O)(c3ccccc3Cl)[C@@H]2C(=O)N2CCC[C@H]2C(N)=O)cc1OC , which call appears in the assay record?
Result: no (0)

Q: Hi, do you know how CCCCCCCCCCCCC/C=C/[C@@H](O)[C@@H](N)COP(=O)(O)O came out in this test?
Result: no (0)

Q: Could you kindly confirm the outcome this assay logged for C=CCN1C[C@H](C)N([C@H](c2ccc(C(=O)N(CC)CC)cc2)c2cccc(O)c2)C[C@H]1C ?
Result: no (0)

Q: Short answer needed: outcome of this test for COc1ccc(NC(=O)c2ccc(-c3ccc(-c4noc(C)n4)cc3C)cc2)cc1OCCN(C)C ?
Result: no (0)
